Record form. Attribute: kon. Fill in for each entry.
SUBJECT OF TEST: recombinant full-length human alpha synuclein monomer (human, UniProt P37840 1-140)
PROCEDURE SUMMARY: SPR, Biacore T200, as in Example 3; Fab injected;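 further: ligands amine-coupled on CM5 chip flow cells, HBS-EP+ running buffer, kinetic data fitted with 1:1 model allowing local bulk contribution and global Rmax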
Answers are plain numbers, in M⁻¹ s⁻¹.

Some solved cases for reference:
{"columns": ["BINDER", "kon (M⁻¹ s⁻¹)"],
 "data": [
  ["6470 rabbit Fab with heavy chain mutation H31R (Fab, V domains shown) VH: QSVEESGGRLVTPGTPLTLTCTVSGIDLSSRDMYWVRQAPGKGLEYIGAIYASGSTYYASWAKGRFTISKTSTTVDLKMTSLTTEDTATYFCARIHYGNSGGLWGQGTLVTVSS VL: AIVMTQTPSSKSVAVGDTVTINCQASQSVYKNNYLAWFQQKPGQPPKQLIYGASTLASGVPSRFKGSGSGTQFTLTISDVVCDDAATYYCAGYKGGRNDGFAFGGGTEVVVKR", 265000],
  ["6470 rabbit Fab with heavy chain mutation N99K (Fab, V domains shown) VH: QSVEESGGRLVTPGTPLTLTCTVSGIDLSSHDMYWVRQAPGKGLEYIGAIYASGSTYYASWAKGRFTISKTSTTVDLKMTSLTTEDTATYFCARIHYGKSGGLWGQGTLVTVSS VL: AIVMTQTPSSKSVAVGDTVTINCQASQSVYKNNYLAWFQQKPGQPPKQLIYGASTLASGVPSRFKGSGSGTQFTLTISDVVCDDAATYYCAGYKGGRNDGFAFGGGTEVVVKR", "7.89e+06"]
]}

Would you kindly look at the next entry?
Field kon (entry 6470 rabbit Fab with heavy chain mutation N99H (Fab, V domains shown) VH: QSVEESGGRLVTPGTPLTLTCTVSGIDLSSHDMYWVRQAPGKGLEYIGAIYASGSTYYASWAKGRFTISKTSTTVDLKMTSLTTEDTATYFCARIHYGHSGGLWGQGTLVTVSS VL: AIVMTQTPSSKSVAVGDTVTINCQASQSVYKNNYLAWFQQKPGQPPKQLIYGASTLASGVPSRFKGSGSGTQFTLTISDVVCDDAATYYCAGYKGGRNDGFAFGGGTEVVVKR ) reads 1.33e+07

Cited source: patent US20210107971A1
